EXPERIMENT NOTES: Bioassay: distribution of I-123-labeled compounds in organs of rats after tail vein injection (percent dose/gram, brain/blood ratio)
Assay type: in vivo, Female Sprague-Dawley rats
EXPERIMENTAL CONTEXT: rat, iv, brain, 5 minutes post-injection, 0.05 to 1.0 mCi, two rats, read-out: Percent Dose/Gram Brain 5 min.
MEASURED ATTRIBUTE: tissue uptake at 5 min
Write the numeric value and follow it with the unit.

-- ask Provide one value: measured tissue uptake at 5 min of "CC(C)NCc1cccc([123I])c1"
-- reply 1.61 %ID/g

-- ask Please supply the value of reported tissue uptake at 5 min for the item "[123I]c1ccc(NCCc2ccccc2)cc1"
-- reply 0.93 %ID/g

-- ask Specify measured tissue uptake at 5 min for "[123I]c1ccccc1CCNCCc1ccccc1" .
-- reply 0.74 %ID/g

-- ask Respond only with tissue uptake at 5 min recorded for CC(Cc1ccccc1)NCCc1ccccc1[123I] (racemic)
-- reply 0.82 %ID/g

-- ask Give the reported value of tissue uptake at 5 min for this record: CC(Cc1ccccc1)Nc1ccccc1[123I] (racemic)
-- reply 0.96 %ID/g

-- ask Query tissue uptake at 5 min for CC1CCC(C)N1Cc1ccccc1[123I] (stereo not shown)
-- reply 1.16 %ID/g

-- ask Item "[123I]c1ccc(NCc2ccccc2)cc1" : provide tissue uptake at 5 min
-- reply 1.57 %ID/g

-- ask Look up tissue uptake at 5 min of "[123I]c1ccccc1CNCCc1ccccc1" and report it.
-- reply 0.68 %ID/g

-- ask Answer with the recorded tissue uptake at 5 min for the molecule listed here: "[123I]c1ccccc1NCCc1ccccc1"
-- reply 1.29 %ID/g

-- ask Find the measured tissue uptake at 5 min of "CC(C)NCCc1ccccc1[123I]" and report it.
-- reply 1.03 %ID/g

====

EXPERIMENT NOTES: Bioassay: distribution of I-123-labeled compounds in organs of rats after tail vein injection (percent dose/gram, brain/blood ratio)
Format: in vivo, Female Sprague-Dawley rats
EXPERIMENTAL CONTEXT: rat, iv, blood, 5 minutes post-injection, 0.05 to 1.0 mCi, two rats, read-out: Percent Dose/Gram Blood 5 min.
MEASURED ATTRIBUTE: tissue uptake at 5 min (%ID/g)
Give just the numeric value; %ID/g need not be written.

-- ask Look up tissue uptake at 5 min of CC(Cc1ccccc1)NCc1ccccc1[123I] (racemic) and report it.
-- reply 0.27

-- ask Given "CNCCc1ccccc1[123I]" , respond with its tissue uptake at 5 min.
-- reply 1.16

-- ask Check the records and state tissue uptake at 5 min for "CC(C)N[C@@H](C)Cc1ccc([123I])cc1"
-- reply 0.11

-- ask Look up and report measured tissue uptake at 5 min for this entry: "[123I]c1ccccc1NCCc1ccccc1"
-- reply 1.04

-- ask Give reported tissue uptake at 5 min value for "CC(C)N(CCc1ccccc1)CCc1ccccc1[123I]"
-- reply 0.29

-- ask Give tissue uptake at 5 min for "[123I]c1ccccc1NCc1ccccc1"
-- reply 0.3

-- ask Provide only the value of recorded tissue uptake at 5 min for "CC(C)N[C@H](C)Cc1ccc([123I])cc1"
-- reply 0.14

-- ask Using the record for NC(=O)C(Nc1ccc([123I])cc1)c1ccccc1 (stereo not drawn) [I--123-α-(p-iodoanilino)phenylacetamide] , state its measured tissue uptake at 5 min.
-- reply 0.71

====

EXPERIMENT NOTES: Bioassay: distribution of I-123-labeled compounds in organs of rats after tail vein injection (percent dose/gram, brain/blood ratio)
Assay type: in vivo, Female Sprague-Dawley rats
EXPERIMENTAL CONTEXT: 60 minutes post-injection
So I've got a bunch of molecules here, and I need their Brain/Blood Ratio 60 min. values.
Output: the number by itself.

-- ask For the molecule CCCNCCc1ccccc1[123I] [I--123-N--propyl-o-iodo-β-phenethylamine] , report Brain/Blood Ratio 60 min..
-- reply 2.20

-- ask Annotate the molecule [123I]c1ccc(N(Cc2ccccc2)Cc2ccccc2)cc1 [I--123-N,N--dibenzyl-p-iodoaniline] with its measured Brain/Blood Ratio 60 min..
-- reply 0.54

-- ask Please indicate Brain/Blood Ratio 60 min. recorded for CC(C)Nc1ccccc1[123I] [I--123-N--isopropyl-o-iodoaniline]
-- reply 0.26

-- ask Using the record for CC(Cc1ccccc1)Nc1ccccc1[123I] (racemic) [I--123-N--(o-iodophenyl)amphetamine (dl)] , state its measured Brain/Blood Ratio 60 min..
-- reply 0.75

-- ask Item "[123I]c1ccccc1CCNCCc1ccccc1" : provide Brain/Blood Ratio 60 min.
-- reply 5.17

-- ask Indicate the recorded Brain/Blood Ratio 60 min. value for this molecule: CC(C)NCc1ccccc1[123I] [I--123-N--isopropyl-o-iodobenzylamine, I-123-N-isopropyl-o-iodobenzylamine]
-- reply 1.04

-- ask Please report the measured Brain/Blood Ratio 60 min. for [123I]c1ccccc1CN1CCCCC1 [I--123-N--o-iodobenzylpiperidine]
-- reply 0.91

-- ask Answer with the recorded Brain/Blood Ratio 60 min. for the molecule listed here: [123I]c1ccc(NCc2ccccc2)cc1 [I--123-N--benzyl-p-iodoaniline]
-- reply 0.51

-- ask Look up Brain/Blood Ratio 60 min. of Nc1ccc([123I])cc1 [I--123-p-iodoaniline] and report it.
-- reply 1.00

-- ask Specify reported Brain/Blood Ratio 60 min. for the molecule shown: [123I]c1ccccc1NCc1ccccc1 [I--123-N--benzyl-o-iodoaniline]
-- reply 0.80

-- ask Item N#CC(Nc1ccccc1)c1ccccc1[123I] (stereo not drawn) : provide Brain/Blood Ratio 60 min.
-- reply 1.41

-- ask Supply recorded Brain/Blood Ratio 60 min. for Nc1ccccc1[123I] [I--123-o-iodoaniline] here.
-- reply 0.07

-- ask Note Brain/Blood Ratio 60 min. for the molecule shown: [123I]c1ccccc1NCCc1ccccc1 [I--123-N--β-phenethyl-o-iodoaniline]
-- reply 0.33

-- ask Provide only the value of recorded Brain/Blood Ratio 60 min. for CCNCc1ccccc1[123I] [I--123-N--ethyl-o-iodobenzylamine]
-- reply 1.31

-- ask # return recorded Brain/Blood Ratio 60 min. for input CC1CCC(C)N1Cc1ccccc1[123I] (stereo not drawn)
-- reply 1.52

-- ask Read off the recorded Brain/Blood Ratio 60 min. for "CC(C)N(Cc1ccccc1[123I])C(C)C"
-- reply 1.31

-- ask Give Brain/Blood Ratio 60 min. for CC(C)NCc1cccc([123I])c1 [I--123-N--isopropyl-m-iodobenzylamine]
-- reply 4.16

-- ask Determine its reported Brain/Blood Ratio 60 min.: C[C@H](N)Cc1ccc([123I])cc1 [I--123-S--p-iodoamphetamine, I-123-S-p-iodoamphetamine]
-- reply 11.30

-- ask # return recorded Brain/Blood Ratio 60 min. for input CC(Cc1ccccc1)NCc1ccccc1[123I] (racemic) [I--123-N--o-iodobenzylamphetamine (dl)]
-- reply 1.89

-- ask Please give measured Brain/Blood Ratio 60 min. of the following entry: CC(C)N[C@H](C)Cc1ccc([123I])cc1 [I--123-R--N--isopropyl-p-iodoamphetamine, I-123-R-N-isopropyl-p-iodoamphetamine]
-- reply 20.70

-- ask Identify measured Brain/Blood Ratio 60 min. associated with CCCNCc1ccccc1[123I] [I--123-N--propyl-o-iodobenzylamine]
-- reply 1.84

-- ask Give the reported Brain/Blood Ratio 60 min. for this molecule. CC(C)N[C@@H](C)Cc1ccc([123I])cc1 [I--123-S--N--isopropyl-p-iodoamphetamine, I-123-S-N-isopropyl-p-iodoamphetamine]
-- reply 15.40

-- ask Give a short answer stating reported Brain/Blood Ratio 60 min. for [123I]c1ccccc1CNc1ccccc1 [I--123-N--o-iodobenzylaniline] .
-- reply 0.41

-- ask Provide Brain/Blood Ratio 60 min. value for the following molecule: "[123I]c1ccccc1CCN(CCc1ccccc1)CCc1ccccc1"
-- reply 0.17
